- assay_target: SARS-CoV-2 3CLpro (Severe acute respiratory syndrome coronavirus 2)
- assay_explanation: FRET based protease assay, SARS-CoV-2 3CL
pIC50: −log10 of the molar value.
reported_metric: pIC50

Some solved entries appear below for comparison.
• N#C[C@@H]1C[C@@H]2C(=O)NC[C@@H]2CCCC[C@H](Nc2nccc(C(F)(F)F)n2)C(=O)N2C[C@@H]3CCC[C@@H]3[C@H]2C(=O)N1 [Example 165] = > 7.00
• CC(C)C[C@@H]1NC(=O)[C@@H](Cc2ccccc2)CCC[C@H]2CNC(=O)[C@@H]2C[C@@H](C#N)NC1=O [Example 27] = 4.70 to 6.00
• CC(C)(C)OC(=O)N[C@H]1CC/C=C\[C@H]2CCNC(=O)[C@H]2CC(C#N)NC(=O)[C@@H]2[C@H]3CCC[C@H]3CN2C1=O (stereo partly drawn) [Example 97] = > 7.00

query: Find the measured pIC50: item CCO[C@@H]1C[C@H]2C(=O)N[C@H](C#N)C[C@@H]3C(=O)NC[C@@H]3CCCC[C@H](NC(=O)OC(C)(C)C)C(=O)N2C1 [Example 144] , target or system SARS-CoV-2 3CLpro (Severe acute respiratory syndrome coronavirus 2).
result: > 7.00

query: Find the measured pIC50: item CC(C)(C)OC(=O)N[C@H]1CCCC[C@H]2CNC(=O)[C@H]2C[C@@H](C#N)NC(=O)[C@@H]2CC(F)(F)CN2C1=O [Example 131] , target or system SARS-CoV-2 3CLpro (Severe acute respiratory syndrome coronavirus 2).
result: 6.00 to 7.00

query: Find the measured pIC50: item CC(C)(C)OC(=O)N[C@@H]1CCCC[C@H]2CNC(=O)[C@H]2C[C@@H](C#N)NC(=O)[C@@H]2[C@@H]3[C@H](CN2C1=O)C3(C)C [Example 128] , target or system SARS-CoV-2 3CLpro (Severe acute respiratory syndrome coronavirus 2).
result: < 4.70

query: Find the measured pIC50: item CC(C)(C)C[C@@H]1NC(=O)[C@@H](NC(=O)C2(C(F)(F)F)CC2)CCCC[C@H]2CNC(=O)[C@H]2C[C@@H](C#N)NC1=O [Example 149] , target or system SARS-CoV-2 3CLpro (Severe acute respiratory syndrome coronavirus 2).
result: > 7.00

query: Find the measured pIC50: item CC(C)(C)OC(=O)N[C@H]1CC/C=C\[C@H]2CCNC(=O)[C@H]2C[C@@H](C#N)NC(=O)[C@@H]2[C@@H]3[C@H](CN2C1=O)C3(C)C [Example 114] , target or system SARS-CoV-2 3CLpro (Severe acute respiratory syndrome coronavirus 2).
result: > 7.00

query: Find the measured pIC50: item CC(C)C[C@@H]1NC(=O)CCCCCC[C@H]2CNC(=O)[C@@H]2C[C@@H](C=O)NC1=O [Example 48] , target or system SARS-CoV-2 3CLpro (Severe acute respiratory syndrome coronavirus 2).
result: 6.00 to 7.00

query: Find the measured pIC50: item CCC(C)(C)[C@@H]1NC(=O)[C@@H](NC(=O)OC(C)(C)C)CCCC[C@H]2CNC(=O)[C@H]2C[C@@H](C#N)NC1=O [Example 145] , target or system SARS-CoV-2 3CLpro (Severe acute respiratory syndrome coronavirus 2).
result: 4.70 to 6.00

query: Find the measured pIC50: item CC1(C)[C@@H]2[C@H]3C(=O)N[C@H](C#N)C[C@@H]4C(=O)NC[C@@H]4CCCC[C@H](NC(=O)c4cc(Cl)ccc4Cl)C(=O)N3C[C@@H]21 [Example 133] , target or system SARS-CoV-2 3CLpro (Severe acute respiratory syndrome coronavirus 2).
result: > 7.00

query: Find the measured pIC50: item CC(C)C[C@@H]1NC(=O)[C@@H](NC(=O)OC(C)(C)C)CCC[C@@H]2CNC(=O)[C@@H]2C[C@@H](C=O)NC1=O [Example 16] , target or system SARS-CoV-2 3CLpro (Severe acute respiratory syndrome coronavirus 2).
result: 6.00 to 7.00

query: Find the measured pIC50: item CC(C)(C)OC(=O)N[C@H]1CC/C=C/[C@H]2CNC(=O)[C@H]2C[C@@H](C#N)NC(=O)[C@@H]2[C@@H]3[C@H](CN2C1=O)C3(C)C [Example 92] , target or system SARS-CoV-2 3CLpro (Severe acute respiratory syndrome coronavirus 2).
result: > 7.00

query: Find the measured pIC50: item CC(C)C[C@@H]1NC(=O)CCCC[C@H]2CNC(=O)[C@H]2C[C@@H](C=O)NC1=O [Example 2] , target or system SARS-CoV-2 3CLpro (Severe acute respiratory syndrome coronavirus 2).
result: 4.70 to 6.00

query: Find the measured pIC50: item CC1(C)[C@@H]2[C@H]3C(=O)N[C@H](C#N)C[C@@H]4C(=O)NC[C@@H]4CCCC[C@H](Nc4cc(C(F)(F)F)ncn4)C(=O)N3C[C@@H]21 [Example 163] , target or system SARS-CoV-2 3CLpro (Severe acute respiratory syndrome coronavirus 2).
result: > 7.00

query: Find the measured pIC50: item CC(C)C[C@@H]1NC(=O)C(OC2CCCCC2)CCC[C@H]2CNC(=O)[C@@H]2C[C@@H](C#N)NC1=O (stereo partly drawn) [Example 23] , target or system SARS-CoV-2 3CLpro (Severe acute respiratory syndrome coronavirus 2).
result: < 4.70
